test system: Vero E6 cell line; details: MTT
Assay Endpoint: CC50 (µM)
Record the value in µM, omitting the unit from your answer.

Solved cases (2 shown):
[in] Need CC50 of CC(=O)N[C@H]1[C@H](O[C@@H]2c3ccc(c(Cl)c3)Oc3cc4cc(c3O)Oc3ccc(cc3Cl)C[C@H]3NC(=O)[C@H](NC(=O)CCC(F)(F)C(F)(F)C(F)(F)C(F)(F)C(F)(F)C(F)(F)C(F)(F)C(F)(F)F)c5ccc(O)c(c5)Oc5cc(O)cc(c5)[C@H](NC3=O)C(=O)N[C@H]4C(=O)N[C@H]3C(=O)N[C@@H]2C(=O)N[C@H](C(=O)O)c2cc(O)cc(O)c2-c2cc3ccc2O)O[C@H](CO)[C@@H](O)[C@@H]1O , thanks.
[out] 175

[in] Need CC50 of CC(=O)N[C@H]1[C@H](O[C@@H]2c3ccc(c(Cl)c3)Oc3cc4cc(c3O)Oc3ccc(cc3Cl)C[C@H]3NC(=O)[C@H](n5cc(COCCOCCCC(F)(F)C(F)(F)C(F)(F)C(F)(F)F)nn5)c5ccc(O)c(c5)Oc5cc(O)cc(c5)[C@H](NC3=O)C(=O)N[C@H]4C(=O)N[C@H]3C(=O)N[C@@H]2C(=O)N[C@H](C(=O)O)c2cc(O)cc(O)c2-c2cc3ccc2O)O[C@H](CO)[C@@H](O)[C@@H]1O , thanks.
[out] 198

Next:
[in] Need CC50 of COC(=O)C1NC(=O)C2NC(=O)C(NC(=O)C3NC(=O)C4NC(=O)C(NC(=O)C(NC(=O)CCC(F)(F)C(F)(F)C(F)(F)C(F)(F)C(F)(F)C(F)(F)C(F)(F)C(F)(F)F)c5ccc(O)c(c5)Oc5cc4cc(O)c5C)C(O)c4ccc(cc4)Oc4cc3cc(c4O)Oc3ccc(cc3)C2O)c2ccc(O)c(c2)-c2c(O)cc(O)cc21 (stereo not drawn) , thanks.
[out] 62.6

[in] Need CC50 of CC(=O)N[C@H]1[C@H](O[C@@H]2c3ccc(c(Cl)c3)Oc3cc4cc(c3O)Oc3ccc(cc3Cl)C[C@H]3NC(=O)[C@H](n5cc(COCCOCCCC(F)(F)C(F)(F)C(F)(F)C(F)(F)C(F)(F)C(F)(F)F)nn5)c5ccc(O)c(c5)Oc5cc(O)cc(c5)[C@H](NC3=O)C(=O)N[C@H]4C(=O)N[C@H]3C(=O)N[C@@H]2C(=O)N[C@H](C(=O)O)c2cc(O)cc(O)c2-c2cc3ccc2O)O[C@H](CO)[C@@H](O)[C@@H]1O , thanks.
[out] 195

[in] Need CC50 of CC(=O)N[C@H]1[C@H](O[C@@H]2c3ccc(c(Cl)c3)Oc3cc4cc(c3O)Oc3ccc(cc3Cl)C[C@H]3NC(=O)[C@H](n5cc(COCCOCCCC(F)(F)C(F)(F)C(F)(F)C(F)(F)C(F)(F)C(F)(F)C(F)(F)C(F)(F)F)nn5)c5ccc(O)c(c5)Oc5cc(O)cc(c5)[C@H](NC3=O)C(=O)N[C@H]4C(=O)N[C@H]3C(=O)N[C@@H]2C(=O)N[C@H](C(=O)O)c2cc(O)cc(O)c2-c2cc3ccc2O)O[C@H](CO)[C@@H](O)[C@@H]1O , thanks.
[out] 149

[in] Need CC50 of CC(=O)NC1C(OC2c3ccc(c(Cl)c3)Oc3cc4cc(c3O)Oc3ccc(cc3Cl)CC3NC(=O)C(NC(=O)CCC(F)(F)C(F)(F)C(F)(F)C(F)(F)C(F)(F)C(F)(F)F)c5ccc(O)c(c5)Oc5cc(O)cc(c5)C(NC3=O)C(=O)NC4C(=O)NC3C(=O)NC2C(=O)NC(C(=O)O)c2cc(O)cc(O)c2-c2cc3ccc2O)OC(CO)C(O)C1O (stereo not drawn) , thanks.
[out] 203

Cited source for all entries: paper PMC13415800
